Here the recorded inhibition is given for each entry.
experimental target: Fructose-bisphosphate aldolase (Mycobacterium tuberculosis (strain ATCC 25618 / H37Rv))
assay procedure: M. tuberculosis aldolase blockers, biochemical, fluorescence, strain H37Rv, confirmation (AID 651616);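 note: 0% = vehicle wells and 100% = reference inhibitor wells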
test parameters: purified M. tuberculosis FBA, fluorescence read-out, at 1 µM, active compounds read high
Screen size: about 5,600 compounds; about 4,400 (79%) were called active. So high a share suggests a set chosen from earlier hits. These entries were drawn from the full list.
Numeric answer only, unit % assumed.

INSERT INTO results (compound, measured_property, test_result) VALUES
  ('Cc1ccc(S(=O)(=O)N2CCN(C(=O)CSc3cc(C)ccc3C)CC2)c(C)c1', 'inhibition', 164),
  ('O=C(CN1C(=O)c2cccc3cccc(c23)C1=O)N1CCCCC1', 'inhibition', 70.8),
  ('Cc1ccc(-n2c(=O)c(C#N)cc3c(=O)n4ccccc4nc32)cc1C', 'inhibition', 21.8),
  ('O=C(NCCCN1CCOCC1)c1cnn2c(-c3ccccc3)cc(-c3ccccc3)nc12', 'inhibition', 96.2),
  ('CCCCNc1c(-c2cccc(Sc3ccc(OC)cc3)c2)nc2ccccn12', 'inhibition', 35.1);

Lab book: inhibition of Cc1nn(-c2ccccc2)nc1C(=O)OCC(=O)N1CCCCC1C (stereo unspecified) noted as -2.48

Lab note: CN(C(=O)c1cc2c(=O)n3ccccc3nc2s1)C1CCCCC1 gave inhibition of 50.9

Given item COc1ccc(-c2oc3ncnc(NCCCO)c3c2-c2ccc(OC)cc2)cc1 , the value recorded as its inhibition is 51.9

get_value(item= CCCS(=O)(=O)Nc1c(C(=O)O)[nH]c2ccccc12 , readout=inhibition) returns 54.9

Record CCOc1ccccc1C1CC(c2ccccc2)Nc2nc(N)nn21 (stereo unspecified) . Reported inhibition: 185

For reference, reported inhibition for Cc1cc(S(=O)(=O)c2cc3ccc(O)c(C)c3oc2=O)ccc1F stands at 44.7

* * *

experimental target: Fructose-bisphosphate aldolase (Mycobacterium tuberculosis (strain ATCC 25618 / H37Rv)) (UniProt P9WQA3)
Sequence (P9WQA3 whole entry, looked up): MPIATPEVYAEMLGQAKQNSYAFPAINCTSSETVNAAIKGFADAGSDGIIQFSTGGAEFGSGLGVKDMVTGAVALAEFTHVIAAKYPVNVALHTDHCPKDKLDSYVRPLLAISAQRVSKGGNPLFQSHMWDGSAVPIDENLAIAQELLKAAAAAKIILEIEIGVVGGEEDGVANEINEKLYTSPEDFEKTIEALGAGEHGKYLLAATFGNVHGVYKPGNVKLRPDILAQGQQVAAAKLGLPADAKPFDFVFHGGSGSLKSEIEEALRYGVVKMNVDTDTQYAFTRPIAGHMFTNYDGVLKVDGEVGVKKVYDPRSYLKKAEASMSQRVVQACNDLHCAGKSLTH
assay procedure: M. tuberculosis aldolase blockers, biochemical, fluorescence, strain H37Rv, confirmation (AID 651616);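 note: 0% = vehicle wells and 100% = reference inhibitor wells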
test parameters: purified M. tuberculosis FBA, fluorescence read-out, at 1 µM
Among all 5,600 compounds or so, about 4,400 (79%) were called active. Rule as the data show it: active = inhibition above about 27%; inactive = the rest. The set was probably picked from earlier hits. Not all results are given here.
Tick one outcome: active, inactive

INSERT INTO results (compound, assigned_class) VALUES
  ('CCc1c(C)c2ccc(OC3CCCCC3=O)cc2oc1=O (stereo not given)', 'active'),
  ('N#Cc1c(N)n(CCOC(=O)c2ccc(Cl)cc2)c2nc3ccccc3nc12', 'active'),
  ('O=C(Nc1cccc2ccccc12)N1CCN(Cc2ccc3c(c2)OCO3)CC1', 'active'),
  ('CCOc1ccc2nc(Nc3nc4ccc(NC(C)=O)cc4s3)sc2c1', 'inactive'),
  ('Cc1ccc(S(=O)(=O)N2C[C@@H](C)[C@]3(C2)[C@H](O)[C@H](OC(=O)NCc2ccccc2)C[C@H]2C(=O)N(c4ccccc4)C(=O)[C@H]23)cc1', 'inactive'),
  ('COc1ccc(-c2ccc(C(=O)NCCN3CCOCC3)c3occc23)c(C)c1', 'active'),
  ('CCc1cc(=O)oc2c(C)c(OCC(=O)N3CC[C@@]4(O)CCCC[C@H]4C3)ccc12', 'active'),
  ('COc1ccc(-c2cn3ccc(C)cc3n2)cc1', 'inactive');

[ask] Record request — test call for COc1ccc(-c2cc(C(=O)N(C)Cc3ccccc3)c3ccccc3n2)cc1
[reply] inactive

[ask] Hi team, can someone confirm the assay call for O=C(Nc1cccc2ccccc12)N1CCC2(CC1)OCCO2 ?
[reply] active

* * *

experimental target: Fructose-bisphosphate aldolase (Mycobacterium tuberculosis (strain ATCC 25618 / H37Rv)) (UniProt P9WQA3)
assay procedure: M. tuberculosis aldolase blockers, biochemical, fluorescence, strain H37Rv, confirmation (AID 651616);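 note: 0% = vehicle wells and 100% = reference inhibitor wells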
test parameters: purified M. tuberculosis FBA, fluorescence read-out, at 1 µM
About 4,400 (79%) of roughly 5,600 compounds were called active. Cut-off read from the data, not from the text of the source: active = inhibition above about 27%; inactive = the rest. The set was probably picked from earlier hits. Only a sample is shown.
Lab note: assign the record to one of True = active, False = inactive

INSERT INTO measurements (compound, assigned_class) VALUES
  ('CC1(C(=O)NCc2ccc(F)c(F)c2)Cc2c(-c3ccc4c(c3)OCO4)ccnc2O1 (stereo not given)', 'True');

[ask] Lab log entry: CC1(C(=O)NCc2ccco2)Cc2c(-c3ccc4c(c3)OCO4)ccnc2O1 (stereo not given) — outcome as called in the assay?
[reply] False

* * *

experimental target: Fructose-bisphosphate aldolase (Mycobacterium tuberculosis (strain ATCC 25618 / H37Rv)) (UniProt P9WQA3)
assay procedure: M. tuberculosis aldolase blockers, biochemical, fluorescence, strain H37Rv, confirmation (AID 651616);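 note: 0% = vehicle wells and 100% = reference inhibitor wells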
test parameters: purified M. tuberculosis FBA, fluorescence read-out, at 1 µM
Hit rate of the full screen: of about 5,600 compounds, about 4,400 (79%) were called active. Rule as the data show it: active = inhibition above about 27%; inactive = the rest. So high a share suggests a set chosen from earlier hits. Not all results are given here.
Give one outcome, nothing more. List: T (active), F (inactive)

Reference set, count: 5
INSERT INTO assay_data (compound, assigned_class) VALUES
  ('O=C(O)Cc1sc(-c2ccc(C(=O)O)cc2)nc1-c1ccccc1', 'F'),
  ('COc1ccc(C2CC(c3cccs3)=NN2c2ccccc2)cc1 (stereo unspecified)', 'T'),
  ('Cc1cccc2c1-c1sc(C(=O)NCCCN3CCc4ccccc4C3)cc1CO2', 'F'),
  ('CCOC(=O)Cn1c(=O)n(Cc2ccc(OC)cc2)c(=O)c2cccnc21', 'T'),
  ('COc1ccc(NC(=O)CN(C)C(=O)c2cc(-c3ccc(C)o3)nc3ccccc23)cc1', 'T');

[ask] Which outcome did this test record for the compound CC(=O)N1C(=O)/C(=C2\SC(=S)N(NC(=O)c3ccc(O)cc3)C2=O)c2ccccc21 ?
[reply] F

[ask] Please let me know the test result on file for C#Cc1cc(N2CCN(C(=O)c3ccoc3)CC2)n2nc(-c3cccc(Cl)c3)cc2n1 .
[reply] T

[ask] Each compound tested received a call. Report the one for COCCCNC(=S)NCCNc1nc2cc(C)c(C)cc2cc1C#N .
[reply] T

[ask] Which outcome was entered for the compound COc1ccc2c(c1OC)C(=O)N(c1ncn[nH]1)C2 in this test?
[reply] T

* * *

experimental target: Fructose-bisphosphate aldolase (Mycobacterium tuberculosis (strain ATCC 25618 / H37Rv)) (UniProt P9WQA3)
assay procedure: M. tuberculosis aldolase blockers, biochemical, fluorescence, strain H37Rv, confirmation (AID 651616);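 note: 0% = vehicle wells and 100% = reference inhibitor wells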
test parameters: purified M. tuberculosis FBA, fluorescence read-out, at 1 µM
About 4,400 (79%) of roughly 5,600 compounds were called active. Rule as the data show it: active = inhibition above about 27%; inactive = the rest. So high a share suggests a set chosen from earlier hits. A selection follows.
Respond with a class label; see active, inactive

Some entries whose results are on file:
INSERT INTO assay_data (chem_smiles, assigned_class) VALUES
  ('Cc1c(CCC(=O)O)c(=O)oc2cc(OCc3ccc(Br)cc3)ccc12', 'inactive'),
  ('CCOc1c2ccc(C(=O)NCc3ccc4c(c3)OCO4)cc2nn1C', 'active');

[ask] Could you check what this test reported for O=C(NCCc1ccccc1)c1ccc2c(c1)N(Cc1ccccc1)CCS2 ?
[reply] active

[ask] Could you please tell me the result logged for Cc1ccc(-c2nc3ccccc3[nH]c2=O)cc1 in this assay?
[reply] active

[ask] Hi, do you know how O=C(Nc1ccc2nccnc2c1)c1ccco1 came out in this test?
[reply] active

[ask] Could you check what this test reported for O=C(NCCN1CCOCC1)c1ccc2c(c1)N(Cc1ccc(Cl)cc1)CCS2 ?
[reply] active

[ask] Per the assay record, what outcome was assigned to COc1ccc(CNC(=O)c2c[nH]c3c(OC)cc(OC)cc3c2=O)cc1 ?
[reply] inactive

[ask] // return assay outcome for COCCCNC(=O)/C(C#N)=C/c1c(N2CCCCCC2)nc2ccccn2c1=O
[reply] active

* * *

experimental target: Fructose-bisphosphate aldolase (Mycobacterium tuberculosis (strain ATCC 25618 / H37Rv))
assay procedure: M. tuberculosis aldolase blockers, biochemical, fluorescence, strain H37Rv, confirmation (AID 651616);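 note: 0% = vehicle wells and 100% = reference inhibitor wells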
test parameters: purified M. tuberculosis FBA, fluorescence read-out, at 1 µM
In all, about 5,600 compounds went through this assay and about 4,400 (79%) were called active. No stated cut-off is given here; in the data, active means inhibition above about 27%; inactive means the rest. So high a share suggests a set chosen from earlier hits. A selection follows.
Form entry, call: pick from y for active, n for inactive

Use the examples below as a reference point.
INSERT INTO measurements (compound, assigned_class) VALUES
  ('CCOC(=O)Cc1c(C)nc2c(C#N)c(C)nn2c1C', 'y'),
  ('OC[C@@H]1CN(Cc2cccs2)C[C@H](n2cnc3c(Nc4ccccc4)ncnc32)O1', 'y'),
  ('CC(OC(=O)c1ccccc1NCCO)C(=O)Nc1ccnn1C(C)C (stereo not drawn)', 'y');

Then there is this compound:
[ask] Which result was noted for this compound in the test: CCCc1nc2oc3c(=O)[nH]cnc3c2c2c1COC(C)(C)C2
[reply] y
